Consider the following molecules and their measured EC50 readings.
# measurement target: dopamine D2 receptor L40R (Arginine 40) (Homo sapiens, UniProt P14416, L40R)
# Sequence (P14416 1-414 isoform P14416-2 L40R): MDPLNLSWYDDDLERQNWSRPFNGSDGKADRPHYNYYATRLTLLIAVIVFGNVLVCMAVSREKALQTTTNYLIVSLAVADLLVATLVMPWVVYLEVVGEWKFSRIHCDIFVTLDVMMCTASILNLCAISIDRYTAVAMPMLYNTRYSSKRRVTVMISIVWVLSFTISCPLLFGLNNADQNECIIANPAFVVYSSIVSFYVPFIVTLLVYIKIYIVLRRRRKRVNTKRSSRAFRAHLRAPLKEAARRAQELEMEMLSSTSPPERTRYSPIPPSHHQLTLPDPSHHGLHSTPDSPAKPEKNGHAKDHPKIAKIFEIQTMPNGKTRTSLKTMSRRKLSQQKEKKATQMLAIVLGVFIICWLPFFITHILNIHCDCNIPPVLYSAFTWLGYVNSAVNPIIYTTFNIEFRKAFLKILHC
# measurement notes: R-SAT functional assay, dopamine D2 receptor L40R
observed property: EC50 (µM)

* CC(C)C[C@H]1C(=O)N2CCC[C@H]2[C@]2(O)O[C@](NC(=O)[C@@H]3C=C4c5cccc6[nH]c(Br)c(c56)C[C@H]4N(C)C3)(C(C)C)C(=O)N12 | 0.0479
* CN1C[C@H](C(=O)N[C@]2(C)O[C@@]3(O)[C@@H]4CCCN4C(=O)[C@H](Cc4ccccc4)N3C2=O)C[C@@H]2c3cccc4[nH]cc(c34)C[C@H]21 [Dihydroergotamine, dihydroergotamine] | 0.0245
